Tested on: Human coronavirus OC43
EXPERIMENT_SUMMARY: microbe, parasite or virus in culture
STUDY_CONDITIONS: Betacoronavirus 1, VR-1558, NCI-H460, 72 h
Description: Antiviral activity against HCoV-OC43 VR-1558 infected in human NCI-H460 cells assessed as inhibition of viral growth incubated for 72 hrs by CCK-8 assay
Threshold 5 µM. EC50 below it: True. EC50 at it or above: False.

>  <MOLECULE>
CN(C)C1CN(Cc2ccc(NC(=O)c3ccc(OCCCl)c([N+](=O)[O-])c3)cc2C(F)(F)F)C1

>  <LABEL>
True

$$$$
>  <MOLECULE>
CN1CCN(Cc2ccc(NC(=O)c3ccc(OCCCl)c([N+](=O)[O-])c3)cc2C(F)(F)F)CC1

>  <LABEL>
True

$$$$
>  <MOLECULE>
CN(C)C1CCN(Cc2ccc(NC(=O)c3ccc(OCC4CC4)c([N+](=O)[O-])c3)cc2C(F)(F)F)CC1

>  <LABEL>
True

$$$$
>  <MOLECULE>
CN(C)C1CC(Oc2ccc(NC(=O)c3ccc(O)c([N+](=O)[O-])c3)cc2C(F)(F)F)C1 (stereo not drawn)

>  <LABEL>
False

$$$$
>  <MOLECULE>
CN1CCN(Cc2ccc(NC(=O)c3ccc(OCCCCl)c(F)c3)cc2C(F)(F)F)CC1

>  <LABEL>
False

$$$$

IN: Here's an entry: CN1CCN(Cc2ccc(NC(=O)c3ccc(OCCCF)c([N+](=O)[O-])c3)cc2C(F)(F)F)CC1 . Is its EC50 below 5 µM?
OUT: True

IN: Here's an entry: CN1CCN(Cc2ccc(NC(=O)c3ccc(OCCCCl)c(NS(C)(=O)=O)c3)cc2C(F)(F)F)CC1 . Is its EC50 below 5 µM?
OUT: False

----------
EXPERIMENT_SUMMARY: in vitro
STUDY_CONDITIONS: human, NCI-H460 cells
Description: Selectivity index, ratio of CC50 for cytotoxicity against human NCI-H460 cells to EC50 for antiviral activity against HCoV-OC43 VR-1558 infected in human NCI-H460 cells
ASSAY_METRIC: selectivity ratio
Please reply with the number alone, leaving off any unit.

Reported selectivity ratio for CN1CCN(Cc2ccc(NC(=O)c3ccc(OCCCCl)c([N+](=O)[O-])c3)cc2C#N)CC1 was 11.2

Reported selectivity ratio for CN(C)C1CC(Oc2ccc(NC(=O)c3ccc(OCC4CC4)c([N+](=O)[O-])c3)cc2C(F)(F)F)C1 (centres undefined) was 7

Reported selectivity ratio for CN1CCN(Cc2ccc(NC(=O)c3ccc(OCCCCl)c([N+](=O)[O-])c3)cc2C(F)(F)F)CC1 was 6.1

Reported selectivity ratio for CN(C)C1CC(Oc2ccc(NC(=O)c3ccc(OCC(F)F)c([N+](=O)[O-])c3)cc2C(F)(F)F)C1 (centres undefined) was 13

----------
EXPERIMENT_SUMMARY: in vitro
STUDY_CONDITIONS: human, NCI-H460 cells
ASSAY_METRIC: selectivity ratio

>  <COMPOUND>
CCOc1ccc(C(=O)Nc2ccc(OC3CC(N(C)C)C3)c(C(F)(F)F)c2)cc1[N+](=O)[O-] (stereo not drawn)

>  <selectivity ratio>
17.9

$$$$
>  <COMPOUND>
CN(C)C1CN(Cc2ccc(NC(=O)c3ccc(OCc4cc(C(F)(F)F)cc(C(F)(F)F)c4)c([N+](=O)[O-])c3)cc2C(F)(F)F)C1

>  <selectivity ratio>
< 1.7

$$$$
>  <COMPOUND>
CCC(=O)Nc1cc(C(=O)Nc2ccc(CN3CCN(C)CC3)c(C(F)(F)F)c2)ccc1OCCCCl

>  <selectivity ratio>
4.73

$$$$
>  <COMPOUND>
CN(C)C1CC(Oc2ccc(NC(=O)c3ccc(OCCF)c([N+](=O)[O-])c3)cc2C(F)(F)F)C1 (stereo not drawn)

>  <selectivity ratio>
15

$$$$
>  <COMPOUND>
CN(C)C1CCN(Cc2ccc(NC(=O)c3ccc(OCCCCl)c([N+](=O)[O-])c3)cc2C(F)(F)F)C1 (stereo not drawn)

>  <selectivity ratio>
2.9

$$$$

Reported selectivity ratio for CN1CCN(Cc2ccc(NC(=O)c3ccc(OCCCl)c([N+](=O)[O-])c3)cc2C(F)(F)F)CC1 was 3.5

Reported selectivity ratio for CC1CC(C)CN(CCCNC(=O)C2CN(Cc3ccc(NC(=O)c4ccc(OCCCCl)c([N+](=O)[O-])c4)cc3C(F)(F)F)C2)C1 (stereo not drawn) was 4.7

Reported selectivity ratio for COc1ccc(C(=O)Nc2ccc(OC3CC(N(C)C)C3)c(C(F)(F)F)c2)cc1[N+](=O)[O-] (stereo not drawn) was 7
